Below are pIC50 values for human DGAT2 (hDGAT2) (Homo sapiens) collected from several publications.
In simple prose, pIC50 is minus the logarithm base ten of a concentration in moles per litre.

Q) State the recorded pIC50 for this entry: CC1(NC(=O)c2ccc3c(-c4cccnc4F)nn(-c4ccc(F)cc4)c3c2)CCS(=O)(=O)C1 (single isomer, unassigned)
A) 7.77

Q) Recorded pIC50 for CC1(NC(=O)c2ccc3c(-c4cc(C#N)ccc4Cl)nn(-c4ccc(F)cc4)c3c2)CCS(=O)(=O)C1 (single isomer, unassigned) , please?
A) 8.60

Q) If you can, please state the reported pIC50 value of `CC1(NC(=O)c2cc3cc(Oc4ncc(F)cc4OC4CC4)ccn3n2)CS(=O)(=O)C1` .
A) 5.74

Q) Value lookup for pIC50; key = `COC[C@H](C)NC(=O)c1ccc2c(-c3ccccc3Cl)nn(-c3ccc(F)cc3)c2c1`
A) 7.07

Q) Can you look up the measured pIC50 of COC(=O)c1cccc(-c2ccc(CNC(=O)[C@H]3C[C@@H]3c3ccccc3)c3c2CCN(C(=O)NC2(C)CC2)C3)c1 (relative stereo) for me?
A) 8.95

Q) Could you tell me which pIC50 is on file for `Cn1nccc1-c1cn(-c2ccc(F)cc2)c2cc(C(=O)N[C@@]3(C)CCS(=O)(=O)C3)cnc12` ?
A) 7.05

Q) Look up pIC50: CCC(CO)NC(=O)c1ccc2c(-c3ccccc3Cl)nn(-c3ccc(F)cc3)c2c1 (racemic)
A) 6.77

Q) Fill blank: measured pIC50 of the compound `Cc1c(C(=O)NC2(C(C)C)CCS(=O)(=O)CC2)nc2ccc(Oc3ncc(F)cc3OCC(F)F)cn12` is ____.
A) 6.36

Q) Need pIC50 of Cc1noc([C@@H]2C[C@H]2C(=O)NCc2ccc(-c3cccc(C(F)(F)F)c3)c3c2CN(C(=O)Nc2cccnc2)CC3)n1 (relative stereo) , thanks.
A) 7.00

Q) Requested read-out: pIC50. Entry: `CC(C)c1c(C(=O)NC2(C)CCS(=O)(=O)CC2)nn2ccc(Oc3ncccc3OCC(F)(F)F)cc12`
A) 7.34
